# System: OVCAR-3-derived ovarian cancer stem-like cells (spheroids)
# assay_protocol: cell growth relative to untreated control; higher = more growth (less inhibition)
# measurement_conditions: 2.29 µM; 96 h
cell growth vs 90%: at or above is YES, below is NO.

Does CN1CCN(CCSC2Cc3cc(Cl)ccc3Sc3ccccc32)CC1 (stereo not drawn) have a reported cell growth of at least 90%?
YES

Does CC1=CC(=O)c2cccc(NC3=NCCO3)c21 have a reported cell growth of at least 90%?
YES

Does OCC1OC(n2cnc3c(SCc4ccccc4)ncnc32)C(O)C1O (stereo not drawn) have a reported cell growth of at least 90%?
YES

Does O=C1C=C(Nc2ccccc2C(=O)CC(=O)C(=O)Nc2ccc(Cl)c(Cl)c2)c2ccccc2C1=O have a reported cell growth of at least 90%?
NO

Does C/C=C(\CCC1NCCc2c1[nH]c1ccccc21)[Si](C)(C)C (stereo not drawn) have a reported cell growth of at least 90%?
NO

Does CN(C)c1ccc(/C=C/C(=O)[O-])cc1.CN(C)c1ccc(/C=C/C(=O)[O-])cc1.[Cu+2] have a reported cell growth of at least 90%?
YES

Does CC[C@]1(O)C[C@H]2CN(CCc3c([nH]c4ccccc34)[C@@](C(=O)OC)(c3cc4c(cc3OC)N(C=O)[C@H]3[C@@](O)(C(=O)OC)[C@H](OC(C)=O)[C@]5(CC)C=CCN6CC[C@]43[C@@H]65)C2)C1 have a reported cell growth of at least 90%?
NO
